FYI, the data here is from patent US7566733B2.

- Tested on: castrated male Sprague Dawley rats
- measurementProtocol: Ventral Prostate and Seminal Vesicle Weight In Vivo Assay; also: key: active: the non weight adjusted prostate weight was ≦40 mg or the % Inhibition prostate weight, body weight adjusted was ≧40%@2 mg/day dosage; inactive: did not meet the specified criteria defined above
- conditionNotes: inhibition of testosterone-enhanced prostate weight; immature castrated rats, once daily for five days, usually orally 40 mg/kg, with testosterone propionate 2 mg/kg s.c.
quantityMeasured: Activity

Here are 6 molecules together with their reported answers.
INSERT INTO results (molecule, measuredtarget, quantitymeasured, result) VALUES
  ('O[C@@H](c1nc2cc(Cl)c(Cl)cc2[nH]1)C(F)(F)F', 'castrated male Sprague Dawley rats', 'Activity', 'active'),
  ('O=C(Cn1c(CC(F)(F)F)nc2cc(Cl)c(Cl)cc21)c1ccc(Cl)cc1', 'castrated male Sprague Dawley rats', 'Activity', 'inactive'),
  ('CCOC(c1nc2cc(Cl)c(Cl)cc2n1CC)C(F)(F)F (stereo not drawn)', 'castrated male Sprague Dawley rats', 'Activity', 'active'),
  ('Cc1cccc(Cn2c(CC(F)(F)F)nc3cc(Cl)c(Cl)cc32)c1', 'castrated male Sprague Dawley rats', 'Activity', 'inactive'),
  ('Fc1cccc(OCCn2c(CC(F)(F)F)nc3cc(Cl)c(Cl)cc32)c1', 'castrated male Sprague Dawley rats', 'Activity', 'inactive'),
  ('COc1cc2nc(C(O)C(F)(F)F)[nH]c2cc1OC (stereo not drawn)', 'castrated male Sprague Dawley rats', 'Activity', 'inactive');

Data request: Please look up its Activity: `FC(F)(F)Cc1nc2cc(Cl)c(Cl)cc2n1Cc1ccccc1Cl`
Data returned: active

Data request: Please look up its Activity: CCn1c(C(C)(O)CS(=O)(=O)CC(F)(F)F)nc2cc(Cl)c(Cl)cc21 (stereo not drawn)
Data returned: inactive

Data request: Please look up its Activity: `O=C(Cn1c(CC(F)(F)F)nc2cc(Cl)c(Cl)cc21)c1ccccn1`
Data returned: active

---

- Tested on: castrated male Sprague Dawley rats
- measurementProtocol: Ventral Prostate and Seminal Vesicle Weight In Vivo Assay; also: key: active: the non weight adjusted prostate weight was ≦40 mg or the % Inhibition prostate weight, body weight adjusted was ≧40%@2 mg/day dosage; inactive: did not meet the specified criteria defined above
- conditionNotes: inhibition of testosterone-enhanced prostate weight; immature castrated rats, once daily for five days, usually orally 40 mg/kg, with testosterone propionate 2 mg/kg s.c.
quantityMeasured: Activity

INSERT INTO assay_data (molecule, result) VALUES
  ('CC(O)(Cc1cccc(F)c1)c1nc2cc(Cl)c(Cl)cc2[nH]1 (stereo not drawn) [Compound 3]', 'inactive'),
  ('FC(F)(F)Cc1nc2cc(Cl)c(Cl)cc2n1Cc1cccc(C(F)(F)F)c1 [Compound 93]', 'active'),
  ('CC(O)(c1nc2cc(Cl)c(Cl)cc2[nH]1)C(F)(F)F (stereo not drawn) [Compound 20]', 'inactive'),
  ('CS(=O)(=O)Cn1c(CC(F)(F)F)nc2cc(Cl)c(Cl)cc21 [Compound 73]', 'active');

Data request: Please look up its Activity: CCn1c(C(C)(O)C(F)(F)F)nc2cc(Cl)c(Cl)cc21 (stereo not drawn) [Compound 13]
Data returned: active

Data request: Please look up its Activity: FC(F)(F)Cc1nc2cc(Cl)c(Cl)cc2n1Cc1ccccn1 [Compound 102]
Data returned: active

Data request: Please look up its Activity: CC(O)(Cc1nc2cc(Cl)c(Cl)cc2[nH]1)C(F)(F)F (stereo not drawn) [Compound 27]
Data returned: active

Data request: Please look up its Activity: ON=C(c1nc2cc(Cl)c(Cl)cc2[nH]1)C(F)(F)F (racemic) [Compound 141]
Data returned: active

Data request: Please look up its Activity: O=[N+]([O-])c1cc2nc(C(O)C(F)(F)F)[nH]c2cc1[N+](=O)[O-] (stereo not drawn) [Compound 155]
Data returned: inactive

---

- System: castrated male Sprague Dawley rats
- measurementProtocol: Ventral Prostate and Seminal Vesicle Weight In Vivo Assay; also: key: active: the non weight adjusted prostate weight was ≦40 mg or the % Inhibition prostate weight, body weight adjusted was ≧40%@2 mg/day dosage; inactive: did not meet the specified criteria defined above
- conditionNotes: inhibition of testosterone-enhanced prostate weight; immature castrated rats, once daily for five days, usually orally 40 mg/kg, with testosterone propionate 2 mg/kg s.c.
quantityMeasured: Activity

Here are 5 compounds together with their reported answers.
INSERT INTO results (compound, result) VALUES
  ('OC(c1nc2cc(Cl)c(F)cc2[nH]1)C(F)(F)F (centres unmarked)', 'active'),
  ('FC(F)(F)Cc1nc2cc(Cl)c(Cl)cc2n1Cc1ccc(SC(F)(F)F)cc1', 'inactive'),
  ('O=[N+]([O-])c1ccc(Cn2c(CC(F)(F)F)nc3cc(Cl)c(Cl)cc32)cc1', 'active'),
  ('O=C(Cn1c(CC(F)(F)F)nc2cc(Cl)c(Cl)cc21)c1ccc(-c2ccccn2)s1', 'inactive'),
  ('FC(F)(F)Cc1nc2cc(Cl)c(Cl)cc2n1Cc1ccc(OC(F)(F)F)cc1', 'inactive');

Data request: Please look up its Activity: `O[C@H](c1nc2cc(Cl)c(Cl)cc2[nH]1)C(F)(F)F`
Data returned: active

Data request: Please look up its Activity: `FC(F)(F)Cc1nc2cc(Cl)c(Cl)cc2n1Cc1ccc(C(F)(F)F)cc1`
Data returned: active

---

- Tested on: castrated male Sprague Dawley rats
- measurementProtocol: Ventral Prostate and Seminal Vesicle Weight In Vivo Assay; also: key: active: the non weight adjusted prostate weight was ≦40 mg or the % Inhibition prostate weight, body weight adjusted was ≧40%@2 mg/day dosage; inactive: did not meet the specified criteria defined above
- conditionNotes: inhibition of testosterone-enhanced prostate weight; immature castrated rats, once daily for five days, usually orally 40 mg/kg, with testosterone propionate 2 mg/kg s.c.
quantityMeasured: Activity

INSERT INTO results (molecule, measuredtarget, result) VALUES
  ('CCn1c(C(C)(O)COC)nc2cc(Cl)c(Cl)cc21 (stereo not shown)', 'castrated male Sprague Dawley rats', 'inactive'),
  ('FC(F)(F)Cc1nc2cc(Cl)c(Cl)cc2n1Cc1ccc(OCc2ccccc2)cc1', 'castrated male Sprague Dawley rats', 'active'),
  ('O=C(Cn1c(CC(F)(F)F)nc2cc(Cl)c(Cl)cc21)c1ccc(F)cc1', 'castrated male Sprague Dawley rats', 'active'),
  ('O=C(Cn1c(CC(F)(F)F)nc2cc(Cl)c(Cl)cc21)c1ccccc1', 'castrated male Sprague Dawley rats', 'inactive');
